Target: T1, human AMHRII (anti-Mullerian hormone receptor type 2) (human, UniProt Q16671 18-573)
T1 construct: whole, on cells; also called AMHR2; human AMHR2
T1 sequence (looked up): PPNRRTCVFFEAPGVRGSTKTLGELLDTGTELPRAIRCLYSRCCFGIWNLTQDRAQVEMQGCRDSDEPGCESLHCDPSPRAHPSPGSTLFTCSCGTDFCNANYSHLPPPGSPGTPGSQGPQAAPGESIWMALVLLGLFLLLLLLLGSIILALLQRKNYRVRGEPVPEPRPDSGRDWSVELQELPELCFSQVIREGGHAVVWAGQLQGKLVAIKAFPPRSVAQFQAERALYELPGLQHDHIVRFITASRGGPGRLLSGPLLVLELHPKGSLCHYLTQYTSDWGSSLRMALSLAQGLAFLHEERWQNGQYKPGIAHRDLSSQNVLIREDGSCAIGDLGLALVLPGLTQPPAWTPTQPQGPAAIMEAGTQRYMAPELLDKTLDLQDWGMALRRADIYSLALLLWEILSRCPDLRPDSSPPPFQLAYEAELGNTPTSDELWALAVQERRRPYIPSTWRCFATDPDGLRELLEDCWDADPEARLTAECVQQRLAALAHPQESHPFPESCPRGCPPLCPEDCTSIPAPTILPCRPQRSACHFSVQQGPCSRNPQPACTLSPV
Assay: FACS on Rko cells over-expressing human AMHR2
pEC50: −log10 of the molar value.
# maps each entry to its pEC50
measure name: pEC50

[[record]]
binder = "xi114A2B5 hIgG1 (antibody, V domains shown, Murine variable domains in human chimeric format, human IgG1; also called 114A2B5 (chimeric)) VH: DVQLQESGPGLVKPSQSLSLTCTVTGYSITSDYAWNWIRQFPGNKLEWMGYISYSGSTSYNPSLKSRISITRDTSKNQFFLQLNSVTTEDTATYYCARSRYSWFDYWGQGTLVTVSA VL: DIVLTQSPASLAVSLGQRATLSCRASESVDTYGNSFMHWYQQKPGQSPKLLIYRASSLESGIPARFSGSGSRTDFTLTINPVEAADVATYYCQQSNEDPYTFGGGTKLEIK"
measure_name = "pEC50"
observed = 9.28

[[record]]
binder = "xi94C4C3 hIgG1 (antibody, V domains shown, Murine variable domains in human chimeric format, human IgG1; also called xi94C4C3 hlgG1; 94C4C3 (chimeric)) VH: DVQLQESGPGLVKPSQSLSLTCTVTGYSITSDYAWNWIRQFPGNKLEWMGYISYSGSISYNPSLKSRISITRDTSKNQFFLQLNSVTTEDTATYYCARSRYSWFDYWGQGTLVTVSA VL: DIVLTQSPTSLAVSLGQRATLSCSASESVDTYGNSFMHWYQQKPGQPPKLLIYRASSLESGIPVRFSGSGSRTDFTLTINPVEAADVATYYCQQSNEDPYTFGGGTKLEIK"
measure_name = "pEC50"
observed = 9.25

[[record]]
binder = "xi31D9B3 hIgG1 (antibody, V domains shown, Murine variable domains in human chimeric format, human IgG1; also called xi31D9B3 hlgG1; 31D9B3 hlgG1) VH: QVKLLQSGAALVKPGASVKMSCKASGYTFTDYWVSWVKQSHGKSLEWIGEIYPKNGVSNFNEKFKGKATLTVDKSTSTAYMELRRLTSEDSAIFYCTRQRDYWGQGVMVTVSS VL: DVVLTQTPGSLSVTLGDQASISCRSSQSLEYGDGYTYLEWYLQKPGQSPQLLIYGVSNRFSGVPDRFIGSGSGTDFTLKISRVEPEDLGVYYCFQATHDPNTFGAGTKLELK"
measure_name = "pEC50"
observed = 9.24

[[record]]
binder = "xi103C5G10F9 hIgG1 (antibody, V domains shown, Murine variable domains in human chimeric format, human IgG1; also called 103C5G10F9 (chimeric)) VH: DVQLQESGPGLVKPSQSLSLTCTVTGYSITSDYAWNWIRQFPGNKLEWMGYISYSGSTSYNPSLKSRISITRDTSKNQFFLQLNSVTTEDTATYYCARSRYSWFDYWGQGTLVTVSA VL: DIVLTQSPTSLAVSLGQRATLSCSASESVDTYGNSFMHWYQQKPGQSPKLLIYRASSLESGIPARFSGSGSRTDFTLTINPVEAADVATYYCQQSNEDPYTFGGGTKLEIK"
measure_name = "pEC50"
observed = 9.37

[[record]]
binder = "xi35D4G3 hIgG1 (antibody, V domains shown, Murine variable domains in human chimeric format, human IgG1; also called 35D4G3 (chimeric)) VH: QVRLLQSGAALVKPGASAKMSCKASGYTFTDYWVSWVKQSHGKSLEWIGEIYPDNGITNFNEKFKGKATLTVDKSTRTAYMELSRLTSEDSAIYYCTRQRDYWGQGVMVTVSS VL: DVVLTQTPGSLSVTLGDQVSISCRSSQSLKYGDGYTYLEWYLQKPGQSPQLLFYGVSNRFSGVPDRFIGSGSGTDFTLKISRVEPEDLGVYYCFQATHDPNTFGTGTKLDLK"
measure_name = "pEC50"
observed = 9.31

[[record]]
binder = "xi108F3D1E9 hIgG1 (antibody, V domains shown, Murine variable domains in human chimeric format, human IgG1; also called xi108F3D1E9 hlgG1; 108F3D1E9 (chimeric)) VH: DVQLQESGPGLVKPSQSLSLTCTVTGYSITSDFAWNWIRQFPGNKLEWMGYINFSGSTSYNPSLKSRISITRDTSKNQFFLQLNSVTTEDTATYYCAGSRYSWFAYWGQGTLVTVSA VL: DIVLTQSPASLAVSLGQRATISCRASESVDTYGNSFMHWYQQKPGQPPKLLIYRASNLESGIPARFSGSGSRTDFTLTINPVEADDVATYYCQQSNEDPYTFGGGTKLEIK"
measure_name = "pEC50"
observed = 9.33

